- Measured target: Caenorhabditis elegans slo-1a (Caenorhabditis elegans)
- Sequence (Q95V25 whole entry): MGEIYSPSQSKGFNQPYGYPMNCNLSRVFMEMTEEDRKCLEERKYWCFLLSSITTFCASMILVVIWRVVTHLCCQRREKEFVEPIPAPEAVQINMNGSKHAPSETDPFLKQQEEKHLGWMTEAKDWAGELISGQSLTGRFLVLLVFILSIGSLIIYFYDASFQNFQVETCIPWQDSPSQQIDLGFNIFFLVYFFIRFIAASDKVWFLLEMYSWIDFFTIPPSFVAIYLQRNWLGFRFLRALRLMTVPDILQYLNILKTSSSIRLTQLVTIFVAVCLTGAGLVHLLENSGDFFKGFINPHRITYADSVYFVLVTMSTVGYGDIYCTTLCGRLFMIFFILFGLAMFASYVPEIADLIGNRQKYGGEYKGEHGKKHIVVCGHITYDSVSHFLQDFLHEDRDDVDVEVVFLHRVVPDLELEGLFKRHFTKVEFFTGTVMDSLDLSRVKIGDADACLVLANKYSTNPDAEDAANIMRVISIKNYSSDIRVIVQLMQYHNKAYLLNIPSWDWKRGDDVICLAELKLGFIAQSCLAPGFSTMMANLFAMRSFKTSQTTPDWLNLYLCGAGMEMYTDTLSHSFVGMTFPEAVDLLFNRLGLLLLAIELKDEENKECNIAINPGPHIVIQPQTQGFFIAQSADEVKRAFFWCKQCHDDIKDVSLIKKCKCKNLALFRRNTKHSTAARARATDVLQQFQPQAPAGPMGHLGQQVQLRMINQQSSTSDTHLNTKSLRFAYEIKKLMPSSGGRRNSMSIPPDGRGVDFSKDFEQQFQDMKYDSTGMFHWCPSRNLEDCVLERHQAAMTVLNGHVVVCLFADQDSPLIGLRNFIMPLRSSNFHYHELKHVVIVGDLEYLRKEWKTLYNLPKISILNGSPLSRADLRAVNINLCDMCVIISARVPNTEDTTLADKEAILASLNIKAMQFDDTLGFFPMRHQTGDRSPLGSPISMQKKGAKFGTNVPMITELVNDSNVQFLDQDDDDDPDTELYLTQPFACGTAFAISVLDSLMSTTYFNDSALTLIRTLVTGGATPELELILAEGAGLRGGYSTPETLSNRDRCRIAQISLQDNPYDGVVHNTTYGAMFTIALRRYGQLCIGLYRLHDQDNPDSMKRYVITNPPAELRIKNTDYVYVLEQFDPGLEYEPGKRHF
- Assay text: Agonistic activity at C. elegans Slo-1a, membrane potential (FLIPR) in transfected CHO K1 cells
- Settings: EC50 agonistic activity at C. elegans Slo-1a, membrane potential dye, 70 mM KCl
For each record, write down the corresponding EC50.

Answered examples (4):
Compound: O=C(Nc1cnc2c(-c3cccc(Cl)c3Cl)cccc2c1N1CCOCC1)C1CCc2ccccc21 (centres unmarked) [Compound 20]
EC50: < 1000 nM
--
Compound: Cc1ccc2c(N(C)C)c(NC(=O)[C@H]3CCc4ccccc43)cnc2c1-c1cc(Cl)cc(Cl)c1 [Compound 182]
EC50: < 1000 nM
--
Compound: COc1c(NC(=O)C2CCCc3ccccc32)cnc2c(-c3cc(Cl)cc(Cl)c3)cccc12 (centres unmarked) [Compound 69]
EC50: < 1000 nM
--
Compound: CC(C(=O)Nc1cnc2c(-c3cccc(Cl)c3Cl)cccc2c1N(C)C)c1ccccc1 (centres unmarked) [Compound 24]
EC50: < 10000 nM

Look at each compound and report its EC50.
1. COc1c(NC(=O)C2CCc3ccccc32)cnc2c(-c3cccc(Cl)c3Cl)cccc12 (centres unmarked) [Compound 16]
2. Cc1ccc2c(N(C)C)c(NC(=O)[C@H]3CCCc4ccccc43)cnc2c1-c1cccc(Cl)c1Cl [Compound 184]
3. CN(C)c1c(NC(=O)C2CCCc3ccccc32)cnc2c(-c3cc(Cl)cc(Cl)c3)cccc12 (centres unmarked) [Compound 68]
4. CN(C)c1c(NC(=O)Cc2ccc(Cl)cc2)cnc2c(-c3cccc(Cl)c3Cl)cccc12 [Compound 25]
5. CCc1c(NC(=O)c2cccc3ccccc23)cnc2c(-c3cc(Cl)cc(Cl)c3)cccc12 [Compound 199]
6. Cc1ccc2c(N3CCOCC3)c(NC(=O)C3CCOc4ccccc43)cnc2c1-c1cc(Cl)cc(Cl)c1 (centres unmarked) [Compound 174]

["< 1000 nM", "< 1000 nM", "< 1000 nM", "< 10000 nM", "< 10000 nM", "< 1000 nM"]

Record summary for Cc1ccc(CC(=O)Nc2cnc3c(-c4cccc(Cl)c4Cl)cccc3c2N(C)C)cc1 [Compound 26] : reported EC50 = < 10000 nM
